- Test system: IL-2
- assay_overview: PHA-IL2 (cell activation and cytokine analysis)
- Type: cell-based
- condition: 50% inhibition concentration class
parameter: IC50

Record excerpt, results attached:
[
  {
    "input_smiles": "O=C(CSc1ccccc1-c1ccccc1)N1CCC(CCc2ccc3c(c2)OCO3)CC1",
    "target_under_test": "IL-2",
    "IC50": "1 to 10 µM"
  },
  {
    "input_smiles": "COc1cccc(CCC2CCN(C(=O)CCc3ccccc3-c3ccccc3)CC2)c1",
    "target_under_test": "IL-2",
    "IC50": "10 to 50 µM"
  },
  {
    "input_smiles": "CCN(CC)C(=O)c1ccc(-c2ccccc2OCC(=O)N2CCC(CCc3ccc4c(c3)OCO4)CC2)cc1",
    "target_under_test": "IL-2",
    "IC50": "1 to 10 µM"
  },
  {
    "input_smiles": "O=C(c1ccccc1)c1ccc(-c2ccccc2OCC(=O)N2CCC(CCc3cc(Br)c(O)c(Br)c3)CC2)cc1",
    "target_under_test": "IL-2",
    "IC50": "1 to 10 µM"
  },
  {
    "input_smiles": "COc1cccc(CCC2CCN(C(=O)COc3ccc(C(F)(F)F)cc3-c3ccc(F)cc3O)CC2)c1",
    "target_under_test": "IL-2",
    "IC50": "< 1 µM"
  }
]

// recorded IC50 for COc1ccc(F)c(-c2ccccc2OCC(=O)N2CCC(CCc3ccc4c(c3)OCO4)CC2)c1 : < 1 µM

Summary for this compound, N#Cc1ccc(OCC(=O)N2CCC(CCc3cccc(OC4CCCC4)c3)CC2)c(-c2ccc(F)cc2O)c1 : IC50 is < 1 µM

Form field IC50, entry N#Cc1ccc(-c2ccccc2OCC(=O)N2CCC(CCc3ccc4c(c3)OCCO4)CC2)cc1 : < 1 µM

Measured IC50, O=C(COc1cccnc1-c1ccc(F)cc1O)N1CCC(CCc2ccc3c(c2)OCO3)CC1 : 1 to 10 µM

Reported IC50 ( Cc1cnc(-c2ccccc2OCC(=O)N2CCC(CCc3ccccc3)CC2)cn1 ) = 1 to 10 µM

Sample CC(C)NC(=O)c1ccc(OCC(=O)N2CCC(CCc3ccccc3)CC2)c(-c2ccc(F)cc2O)c1 ; IC50 observed: 10 to 50 µM

GET /value?item= COc1cccc(CCC2CCN(C(=O)COc3ccccc3-c3ccc4[nH]c(C)nc4c3)CC2)c1 &field=IC50 returns 1 to 10 µM

So for COCc1ccc(CCC2CCN(C(=O)COc3ccccc3-c3ccc(F)cc3O)CC2)cc1 , the logged IC50 turned out to be < 1 µM

// sample CC(C)NS(=O)(=O)c1ccc(OCC(=O)N2CCC(CCc3ccc4c(c3)OCO4)CC2)c(-c2ccc(F)cc2O)c1 , its IC50 was 1 to 10 µM

For reference, reported IC50 for COc1cccc(CCC2CCN(C(=O)CCc3ccccc3-c3ccc(F)cc3)CC2)c1 stands at 1 to 10 µM

get_value(item= O=C1NCCOc2ccc(CCC3CCN(C(=O)COc4ccccc4-c4ccccc4)CC3)cc21 , readout=IC50) returns < 1 µM

compound NC(=O)c1ccc(-c2ccccc2OCC(=O)N2CCC(CCc3ccc4c(c3)OCO4)CC2)cc1 , IC50 observed: 10 to 50 µM

Entry N#Cc1ccc(-c2ccccc2OCC(=O)N2CCC(CCc3ccc4c(c3)OCO4)CC2)cc1 , IC50 reported as < 1 µM

GET /value?item= O=C(COc1cccnc1-c1ccc(F)cc1O)N1CCC(CCc2ccc3c(c2)OCCO3)CC1 &field=IC50 returns < 1 µM

Lab note: measured IC50 of Cn1ncc2cc(-c3ncccc3OCC(=O)N3CCC(CCc4ccc5c(c4)OCO5)CC3)ccc21 was 1 to 10 µM

The compound COc1cccc(CCC2CCN(C(=O)COc3cccnc3-c3ccc(C(F)(F)F)cc3O)CC2)c1 showed IC50 equal to 1 to 10 µM

Record COc1cccc(CCC2CCN(C(=O)COc3cccnc3-c3ccc(C#N)cc3)CC2)c1 , field IC50: 1 to 10 µM

The compound identified as O=C(COc1ccccc1-c1cnccn1)N1CCC(CCc2ccccc2)CC1 registered its IC50 at 1 to 10 µM

The reported value for O=C(CCc1ccccc1-c1ccccc1)N1CCC(CCc2ccc3c(c2)OCO3)CC1 in terms of IC50 is 10 to 50 µM

Just so you know, measured IC50 for CC(C)Oc1cccc(-c2ccccc2OCC(=O)N2CCC(CCc3ccc4c(c3)OCO4)CC2)c1 came out at 1 to 10 µM

The reported IC50 of the compound CN(C)C(=O)c1ccc(OCC(=O)N2CCC(CCc3ccccc3)CC2)c(-c2ccc(C#N)cc2)c1 was 1 to 10 µM
